# test-protocol: recombinant UMI read abundance after kanamycin selection (control-corrected) (log10(CPM+1)); higher = more efficient recombination; extreme values may be limits of the assay; sequences stand for … in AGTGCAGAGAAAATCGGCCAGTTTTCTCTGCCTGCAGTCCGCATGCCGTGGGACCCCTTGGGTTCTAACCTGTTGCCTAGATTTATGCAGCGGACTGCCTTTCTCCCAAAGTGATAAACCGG…AGGTTGGTTTCACT; site = the 11-nt donor
Each record's recombinant UMI read abundance (log10) is compared with low bracket = under 0.02, middle bracket = from 0.02 up to 2, high bracket = 2 and over to give its class.

Exercise: # classify by recombinant UMI read abundance (log10) band: ACTAAGTCATGGACCGGTTTTCCCGGTAATCCGTATTTGAG (site ACTAAGTCTCT)
Key: high bracket

Exercise: # classify by recombinant UMI read abundance (log10) band: GAATGGCCATGGACCGGTTTTCCCGGTAATCCGTATTTGCC (site GAATGGCCTAG)
Key: low bracket

Exercise: # classify by recombinant UMI read abundance (log10) band: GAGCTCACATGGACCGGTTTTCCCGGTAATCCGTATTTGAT (site GGGCTCACTAT)
Key: middle bracket

Exercise: # classify by recombinant UMI read abundance (log10) band: CGCTGTACATGGACCGGTTTTCCCGGTAATCCGTATTTGCT (site CGCCGTACTAG)
Key: middle bracket

Exercise: # classify by recombinant UMI read abundance (log10) band: CTAGCATCATGGACCGGTTTTCCCGGTAATCCGTATTTGAC (site CTAGCATCTGT)
Key: high bracket

Exercise: # classify by recombinant UMI read abundance (log10) band: ATCAGGCCATGGACCGGTTTTCCCGGTAATCCGTATTTGAC (site ATGAGGCCTGT)
Key: low bracket

Exercise: # classify by recombinant UMI read abundance (log10) band: CGGCCGACATGGACCGGTTTTCCCGGTAATCCGTATTTGTA (site CGGCCGACTTA)
Key: middle bracket

Exercise: # classify by recombinant UMI read abundance (log10) band: GATTGCGCATGGACCGGTTTTCCCGGTAATCCGTATTTGCG (site GATTGCGCTCG)
Key: middle bracket

Exercise: # classify by recombinant UMI read abundance (log10) band: GGCCATCCATGGACCGGTTTTCCCGGTAATCCGTATTTGTT (site GGCCAGCCTAA)
Key: low bracket

Exercise: # classify by recombinant UMI read abundance (log10) band: TATAGTCCATGGACCGGTTTTCCCGGTAATCCGTATTTGTA (site TAGAGTCCTTA)
Key: middle bracket

Exercise: # classify by recombinant UMI read abundance (log10) band: GAGAAGCCATGGACCGGTTTTCCCGGTAATCCGTATTTGGG (site GTGAAGCCTCC)
Key: middle bracket

Exercise: # classify by recombinant UMI read abundance (log10) band: CACGTATCATGGACCGGTTTTCCCGGTAATCCGTATTTGAC (site CTAGTATCTGT)
Key: middle bracket

Exercise: # classify by recombinant UMI read abundance (log10) band: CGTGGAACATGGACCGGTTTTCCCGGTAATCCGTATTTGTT (site CGTGGAGCTAA)
Key: low bracket

Exercise: # classify by recombinant UMI read abundance (log10) band: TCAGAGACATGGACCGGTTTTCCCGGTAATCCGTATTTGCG (site TCAGAGACTCG)
Key: high bracket

Exercise: # classify by recombinant UMI read abundance (log10) band: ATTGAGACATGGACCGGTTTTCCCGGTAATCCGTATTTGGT (site ATTGAGCCTAC)
Key: middle bracket

Exercise: # classify by recombinant UMI read abundance (log10) band: TCACACTCATGGACCGGTTTTCCCGGTAATCCGTATTTGCA (site TCACACTCTTG)
Key: high bracket

Exercise: # classify by recombinant UMI read abundance (log10) band: TACGAATCATGGACCGGTTTTCCCGGTAATCCGTATTTGCG (site TACGAATCTCG)
Key: high bracket

Exercise: # classify by recombinant UMI read abundance (log10) band: TATTCGGCATGGACCGGTTTTCCCGGTAATCCGTATTTGGT (site TATTCGGCTAC)
Key: low bracket

###

Exercise: state measured recombinant barcode read abundance (log10) for each of the sequences provided.
# test-protocol: recombinant barcode read abundance after kanamycin selection (control-corrected) (log10(CPM+1)); higher = more efficient recombination; sequences stand for … in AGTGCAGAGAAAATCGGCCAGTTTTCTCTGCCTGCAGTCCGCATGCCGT…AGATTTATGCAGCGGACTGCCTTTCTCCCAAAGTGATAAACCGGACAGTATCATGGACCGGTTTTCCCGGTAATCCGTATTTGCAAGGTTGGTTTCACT; site = the 11-nt target
Simply state the number, no unit and no words.

Exercise: Fill in the blank: the reported recombinant barcode read abundance (log10) of TAGCATGCTTGGGTTCTAACCTGTTGCAA (site TAGCATGCTTT) is ____.
Key: 0.324

Exercise: Fill in the blank: the reported recombinant barcode read abundance (log10) of GGCACCGCTTGGGTTCTAACCTGTTGCCT (site GGCACAGCTAG) is ____.
Key: 0.0859

Exercise: Fill in the blank: the reported recombinant barcode read abundance (log10) of CACGCAACTTGGGTTCTAACCTGTTGCTT (site GAGGCAACTAA) is ____.
Key: 0.888

Exercise: Fill in the blank: the reported recombinant barcode read abundance (log10) of AGAGATGCTTGGGTTCTAACCTGTTGCAG (site AGAGGAGCTCT) is ____.
Key: 0.289

Exercise: Fill in the blank: the reported recombinant barcode read abundance (log10) of TCTACTTCTTGGGTTCTAACCTGTTGCCT (site TCTACATCTAG) is ____.
Key: 0.0183

Exercise: Fill in the blank: the reported recombinant barcode read abundance (log10) of TATACTACTTGGGTTCTAACCTGTTGCTA (site TATAATACTTC) is ____.
Key: 0.511

Exercise: Fill in the blank: the reported recombinant barcode read abundance (log10) of GCGGATCCTTGGGTTCTAACCTGTTGCTA (site AGATTAGCTCG) is ____.
Key: 0.159

Exercise: Fill in the blank: the reported recombinant barcode read abundance (log10) of ACGACTCCTTGGGTTCTAACCTGTTGCTG (site ACGGCTCCTCA) is ____.
Key: 0.0665

Exercise: Fill in the blank: the reported recombinant barcode read abundance (log10) of GAACGGGCTTGGGTTCTAACCTGTTGCGG (site GAACGGGCTCC) is ____.
Key: 1.33

Exercise: Fill in the blank: the reported recombinant barcode read abundance (log10) of GGTTGTCCTTGGGTTCTAACCTGTTGCCT (site GGTGGTCCTAG) is ____.
Key: 0.253

Exercise: Fill in the blank: the reported recombinant barcode read abundance (log10) of GACTATCCTTGGGTTCTAACCTGTTGCCG (site GACTATCCTCG) is ____.
Key: 0.739

Exercise: Fill in the blank: the reported recombinant barcode read abundance (log10) of GCTCGGGCTTGGGTTCTAACCTGTTGCGG (site ATGTCCTCTTG) is ____.
Key: 0.0124

Exercise: Fill in the blank: the reported recombinant barcode read abundance (log10) of GACTATCCTTGGGTTCTAACCTGTTGCCG (site ACTATGACTAA) is ____.
Key: 0.0127

Exercise: Fill in the blank: the reported recombinant barcode read abundance (log10) of ATATCGTCTTGGGTTCTAACCTGTTGCCT (site CTATCGTCTAG) is ____.
Key: 0.0269

Exercise: Fill in the blank: the reported recombinant barcode read abundance (log10) of ACTAATCCTTGGGTTCTAACCTGTTGCTT (site CCTAATACTAA) is ____.
Key: 0.105

Exercise: Fill in the blank: the reported recombinant barcode read abundance (log10) of TACTGATCTTGGGTTCTAACCTGTTGCCT (site TAGTGATCTAG) is ____.
Key: 0.0404

Exercise: Fill in the blank: the reported recombinant barcode read abundance (log10) of ATGATTACTTGGGTTCTAACCTGTTGCCT (site ATAGTTACTAG) is ____.
Key: 0.0836

Exercise: Fill in the blank: the reported recombinant barcode read abundance (log10) of ACGTCACCTTGGGTTCTAACCTGTTGCCT (site ACGTCACCTAG) is ____.
Key: 0.536

Exercise: Fill in the blank: the reported recombinant barcode read abundance (log10) of GGCTAACCTTGGGTTCTAACCTGTTGCCT (site GGCTAACCTAG) is ____.
Key: 1.33

Exercise: Fill in the blank: the reported recombinant barcode read abundance (log10) of TCAATCCCTTGGGTTCTAACCTGTTGCCT (site TCTATCCCTAG) is ____.
Key: 0.0124

Exercise: Fill in the blank: the reported recombinant barcode read abundance (log10) of TATCCCTCTTGGGTTCTAACCTGTTGCCT (site ATCAAGCCTCT) is ____.
Key: 0.18

Source: the supplement of paper PMC11208160
